method: Mouse brain penetration pharmacokinetics study (plasma and brain)
Assay type: in vivo, ICR male mice
run_parameters: male, ICR, mouse, plasma, po, 30 mg/kg, ICR male mice, PO(30mg/kg), sampling time 36 h, individual animals; read-out: Plasma concentration
parameter_measured: concentration at 36 h (ng/mL)
# output: bare number, implied unit ng/mL

Value of measured concentration at 36 h for the entry CN(C(=O)c1ccc2nc(N)c3cncn3c2c1)[C@@H]1COc2cc(C(F)(F)F)ccc21 [Example 107] : 49.6

###

Test system: HCT-116 MTAP wild-type cells
method: Inhibition of proliferation of HCT-116 MTAP wild-type cells (Cell-Titer Glo)
Assay type: cell-based
run_parameters: Homo sapiens, HCT-116, 192 h, 8 days
Provide the reported IC50 of each item.
Use nM as the unit, but write only the number.

Form field IC50, entry Cc1ncn2c1c(N)nc1ccc(C(=O)N(C3CC3)C3COc4cc(C(F)(F)F)ccc43)cc12 (stereo not shown) : 5020

The molecule identified as C[C@H]1OC[C@@H](N(C)C(=O)c2ccc3nc(N)c4cncn4c3c2)c2cnc(C(F)(F)F)cc21 registered its IC50 at 1410

What the record says about CC1OC[C@@H](N(C)C(=O)c2ccc3nc(N)c4cncn4c3c2)c2ccc(C(F)(F)F)cc21 (stereo partly shown) : IC50 is 280

###

method: Mouse brain penetration pharmacokinetics study (plasma and brain)
Assay type: in vivo, ICR male mice
run_parameters: male, ICR, mouse, plasma, po, 30 mg/kg, ICR male mice, PO(30mg/kg), sampling time 12 h, individual animals; read-out: Plasma concentration
parameter_measured: concentration at 12 h (ng/mL)
Unit ng/mL implied. Number only.

Form: compound = CN(C(=O)c1ccc2nc(N)c3cncn3c2c1)[C@@H]1COc2cc(C(F)(F)F)ccc21 ; concentration at 12 h = 2750

###

Test system: SU-DHL-4
method: Mini cell panel: inhibition of proliferation of SU-DHL-4 cells
Type: cell-based
run_parameters: Homo sapiens, SU-DHL-4, MTAP Wild type
Exercise: for every item that follows, state its recorded IC50.
Expressed in nM, but write only the number.

In plain terms, CN(C(=O)c1cc2c(cn1)nc(N)c1cncn12)[C@@H]1COc2cc(C(F)(F)F)ccc21 has a documented IC50 of 1260

Field IC50 (entry CC(=O)O[C@H]1C(=O)[C@@]2(C)[C@H]([C@H](OC(=O)c3ccccc3)[C@]3(O)C[C@H](OC(=O)[C@H](O)[C@@H](NC(=O)c4ccccc4)c4ccccc4)C(C)=C1C3(C)C)[C@]1(OC(C)=O)CO[C@@H]1C[C@@H]2O [Paclitaxel, reference compound] ) reads 1.9

# IC50 (compound: CN(C(=O)c1ccc2nc(N)c3cncn3c2c1)[C@@H]1COc2cc(C(F)(F)F)ccc21 ) is 3100

###

Test system: U87MG MTAP(-/-) cells
method: Inhibition of proliferation of U87MG MTAP(-/-) cells (CellTiter-Glo)
Type: cell-based
run_parameters: Homo sapiens, U-87 MG, 144 h, cell proliferation, 6 days
We label by threshold. Values of IC50 strictly beneath 80 nM are fulfilled. Values of 80 nM and up are not fulfilled.

*Q* Take the compound [2H]C([2H])([2H])N(C(=O)c1ccc2nc(N)c3cncn3c2c1)[C@@H]1COc2cc(C(F)(F)F)ccc21 and say whether its IC50 is less than 80 nM.
*A* fulfilled

*Q* Hi there! Is IC50 for COc1ccc2c(c1)OC[C@H]2N(C)C(=O)c1cc2c(cc1F)nc(N)c1cncn12 below 80 nM, do you know?
*A* not fulfilled

*Q* Answer whether the compound CN(C(=O)c1cc2c(cn1)nc(N)c1cncn12)[C@@H]1COc2cc(C(F)(F)F)ccc21 has IC50 strictly less than 80 nM
*A* not fulfilled

*Q* Is the reported IC50 for Cc1ncc(-c2ccc3c(c2)OC[C@H]3N(C)C(=O)c2cc3c(cc2F)nc(N)c2cncn23)cn1 strictly below 80 nM?
*A* not fulfilled

*Q* Hello, is IC50 of the following compound strictly smaller than 80 nM? CN(C(=O)c1cc2c(cc1C(F)(F)F)nc(N)c1cncn12)[C@@H]1COc2cc(C(F)(F)F)ccc21
*A* not fulfilled

###

Please respond with reported bioavailability for every item in the list.
method: Mouse pharmacokinetic experiment (IV and PO, plasma)
Format: in vivo, ICR male mice
run_parameters: male, mouse, plasma; ICR mice, PO(10mg/kg) vs IV(3mg/kg); read-out: Bioavailability F (%)
Dear colleague, please return just the value in %, with no unit written.

// bioavailability lookup, molecule = [2H]C([2H])([2H])N(C(=O)c1ccc2nc(N)c3cncn3c2c1)[C@@H]1COc2cc(C(F)(F)F)ccc21 , result: 131

Field bioavailability (entry CN(C(=O)c1cc2c(cn1)nc(N)c1cncn12)[C@@H]1COc2cc(C(F)(F)F)ccc21 ) reads 77

// bioavailability value for CN(C(=O)c1ccc2nc(N)c3cncn3c2c1)[C@@H]1COc2cc(C(F)(F)C(F)(F)F)ccc21 : 77.5

Briefly, bioavailability measured for [2H]C([2H])([2H])N(C(=O)c1cc2c(cc1F)nc(N)c1cncn12)[C@@H]1COc2cc(C(F)(F)F)ccc21 : 257

In plain terms, CN(C(=O)c1ccc2nc(N)c3cncn3c2c1)[C@@H]1COc2cc(C(F)(F)F)ccc21 has a documented bioavailability of 119

###

Provide the recorded IC50 for the entries that follow.
Tested on: U87MG MTAP(-/-) cells
method: Inhibition of proliferation of U87MG MTAP(-/-) cells (CellTiter-Glo)
Type: cell-based
run_parameters: Homo sapiens, U-87 MG, 144 h, cell proliferation, 6 days
Answer shape: numeric part, then the unit.

Just so you know, measured IC50 for CN(C(=O)c1ccc2nc(N)c3cncn3c2c1)[C@@H]1COc2cc(C(F)(F)F)ccc21 came out at 111 nM

IC50 reported for this compound CCN(C(=O)c1cc2c(cc1F)nc(N)c1cncn12)[C@@H]1COc2cc(C(F)(F)F)ccc21 : 64.4 nM

Memo: CN(C(=O)c1ccc2nc(N)c3cncn3c2c1)C1COc2cc(S(F)(F)(F)(F)F)ccc21 (stereo not shown) , reported IC50: 60.6 nM

Reported IC50 of CN(C(=O)c1cc2c(cc1F)nc(N)c1cncn12)[C@@H]1COc2cc(-c3cnn(C(F)(F)F)c3)ccc21 : 81.7 nM

###

method: Mouse brain penetration pharmacokinetics study (plasma and brain)
Type: in vivo, ICR male mice
run_parameters: male, ICR, mouse, brain, po, 30 mg/kg, ICR male mice, PO(30mg/kg), sampling time 12 h, individual animals; read-out: Brain concentration
parameter_measured: concentration at 12 h (ng/g)
Respond numerically; units are ng/g and should not be typed.

Lookup result for CN(C(=O)c1ccc2nc(N)c3cncn3c2c1)[C@@H]1COc2cc(C(F)(F)F)ccc21 [Example 107] ; measured concentration at 12 h: 1000

###

method: Mouse brain penetration pharmacokinetics study (plasma and brain)
Format: in vivo, ICR male mice
run_parameters: male, ICR, mouse, plasma, po, 100 mg/kg, ICR male mice, PO(100mg/kg), sampling time 2 h, individual animals
parameter_measured: concentration at 2 h

So, CN(C(=O)c1ccc2nc(N)c3cncn3c2c1)[C@@H]1COc2cc(C(F)(F)F)ccc21 [Example 107] ? Its concentration at 2 h was 38800 ng/mL

###

So I've got a bunch of molecules here, and I need their pIC50 values.
System: U87MG
method: Mini cell panel: inhibition of proliferation of U87MG cells
Type: cell-based
run_parameters: Homo sapiens, U-87 MG, MTAP (-/-)
Excerpt: Test 9: Mini Cell Panel: Assay for Inhibitory Activity of Compounds against Proliferation of 20 Tumor Cell Lines Materials and Cells: Fifteen MTAP(-/-) cell lines and five MTAP wild-type cell lines were purchased from ATCC (USA). Cell culture media, fetal bovine serum (FBS), and penicillin-streptomycin were purchased from Thermo Fisher Scientific (USA). 384-well plates were purchased from PerkinElmer (USA). The CellTiter-Glo assay kit was purchased from Promega (USA). […]
Note on pIC50: it is the negative log10 of concentration, concentration in mol/L.

Form: molecule = CN(C(=O)c1ccc2nc(N)c3cncn3c2c1)[C@@H]1COc2cc(C(F)(F)F)ccc21 ; pIC50 = 6.49

// recorded pIC50 for CN(C(=O)c1cc2c(cn1)nc(N)c1cncn12)[C@@H]1COc2cc(C(F)(F)F)ccc21 : 6.83

Measured pIC50, CC(=O)O[C@H]1C(=O)[C@@]2(C)[C@H]([C@H](OC(=O)c3ccccc3)[C@]3(O)C[C@H](OC(=O)[C@H](O)[C@@H](NC(=O)c4ccccc4)c4ccccc4)C(C)=C1C3(C)C)[C@]1(OC(C)=O)CO[C@@H]1C[C@@H]2O [Paclitaxel, reference compound] : 8.28

###

method: Mouse brain penetration pharmacokinetics study (plasma and brain)
Type: in vivo, ICR male mice
run_parameters: male, ICR, mouse, brain and plasma, po, 100 mg/kg, ICR male mice, PO(100mg/kg), sampling time 2 h, individual animals; read-out: B/P ratio
parameter_measured: Kp at 2 h
// response body must contain only the number

Value of measured Kp at 2 h for the entry CN(C(=O)c1ccc2nc(N)c3cncn3c2c1)[C@@H]1COc2cc(C(F)(F)F)ccc21 [Example 107] : 0.171
